# STUDY_TARGET: native human ESRRG protein (Homo sapiens)
# Sequence (P62508 1-458): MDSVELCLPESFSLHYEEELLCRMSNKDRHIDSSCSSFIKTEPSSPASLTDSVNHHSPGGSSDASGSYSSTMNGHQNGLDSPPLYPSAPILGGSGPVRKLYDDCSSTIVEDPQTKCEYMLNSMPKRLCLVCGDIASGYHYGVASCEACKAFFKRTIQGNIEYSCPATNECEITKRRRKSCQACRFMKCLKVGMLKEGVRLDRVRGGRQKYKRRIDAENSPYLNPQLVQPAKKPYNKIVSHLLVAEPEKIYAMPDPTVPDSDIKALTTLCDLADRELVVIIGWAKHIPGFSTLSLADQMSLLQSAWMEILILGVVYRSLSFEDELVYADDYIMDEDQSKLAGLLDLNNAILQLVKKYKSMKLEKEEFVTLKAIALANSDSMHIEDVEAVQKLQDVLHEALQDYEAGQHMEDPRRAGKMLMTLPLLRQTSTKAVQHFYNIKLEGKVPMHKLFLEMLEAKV
# EXPERIMENTAL_DETAILS: peptide microarray screening for ESRRG binding (Iteration 1 and 2)
# CONDITIONS: Iteration 2 iterative screen; fluorescence intensity units
Mark T only for Sample A (Bkgd) Signal values smaller than 200; exact matches and larger values are F.

{"CHAIN": "HDNMYLNE", "CLASSIFICATION": "T"}
{"CHAIN": "RRSYPRGR", "CLASSIFICATION": "F"}
{"CHAIN": "TGKLKQDG", "CLASSIFICATION": "F"}
{"CHAIN": "FWNMYLNP", "CLASSIFICATION": "T"}
{"CHAIN": "HFKLKQGG", "CLASSIFICATION": "F"}
{"CHAIN": "FWKGHFDF", "CLASSIFICATION": "F"}
{"CHAIN": "HLKLKQEN", "CLASSIFICATION": "T"}
{"CHAIN": "HNNFSLEP", "CLASSIFICATION": "T"}

Incoming: Lab note: Sample A (Bkgd) Signal threshold 200. Does this sequence come in strictly under it? PGKGHFPI
Outgoing: F

Incoming: Lab note: Sample A (Bkgd) Signal threshold 200. Does this sequence come in strictly under it? AHNYLLEH
Outgoing: T

Incoming: Lab note: Sample A (Bkgd) Signal threshold 200. Does this sequence come in strictly under it? HNNYLLNN
Outgoing: T

Incoming: Lab note: Sample A (Bkgd) Signal threshold 200. Does this sequence come in strictly under it? WLLLKHGL
Outgoing: F

Incoming: Lab note: Sample A (Bkgd) Signal threshold 200. Does this sequence come in strictly under it? LFLLQQDD
Outgoing: F

Incoming: Lab note: Sample A (Bkgd) Signal threshold 200. Does this sequence come in strictly under it? HRSYPRVY
Outgoing: F

Incoming: Lab note: Sample A (Bkgd) Signal threshold 200. Does this sequence come in strictly under it? FVNFSLGI
Outgoing: F

These measurements were taken from patent US20130053541A1.
